system: TWEAK-Fn14 signalling pathway, BRV5 cells; experiment: Cell-based screening of individual peptides, gene expression microarray in TWEAK-stimulated BRV5 cells; design: species or system human; conditions: individual peptides, BRV5 + TWEAK, 450 µM, 6 h; mean of replicate columns
recordedEndpoint: TRAF2 mRNA expression (normalized to NARS2)

{"substance": "1: GNGTDDNSGTSY [Peptide 1]", "valueMeasured": 0.011}
{"substance": "46: TGYAENV [Peptide 46]", "valueMeasured": 0.01616}
{"substance": "13: YSGYFGGFY [Peptide 13]", "valueMeasured": 0.02474}
{"substance": "SGVSTAQLD [Peptide 4]", "valueMeasured": 0.01397}
{"substance": "SWYDHMAGDSSY [Peptide 35]", "valueMeasured": 0.008162}
{"substance": "42: YNGHVKDD [Peptide 42]", "valueMeasured": 0.01684}
{"substance": "TKGGGTADA [Peptide 3]", "valueMeasured": 0.009427}
{"substance": "30: DNGGGNTDIYSE [Peptide 30]", "valueMeasured": 0.01042}
{"substance": "11: SGVAYQETT [Peptide 11]", "valueMeasured": 0.01037}

---

Molecular target: human His6-TWEAK protein (Homo sapiens)
Construct: purchased R&D Systems
Sequence (O43508 97-249 limits assumed): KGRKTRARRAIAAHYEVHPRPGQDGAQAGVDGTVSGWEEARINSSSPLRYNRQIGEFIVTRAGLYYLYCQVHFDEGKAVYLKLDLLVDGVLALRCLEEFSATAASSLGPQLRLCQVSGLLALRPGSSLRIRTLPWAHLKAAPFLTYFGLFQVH
Assay: SPR binding of peptides to immobilized His6-TWEAK
Details: figure 6; 25 °C, HBS-EP pH 7.4, 6.25 µM to 800 µM peptide, 1:1 Langmuir global fit; representative of at least three independent experiments
pKd: −log10 of the molar value. No end group written: not given here.

{"substance": "TTDGSTGDDLQA-NH2 [Peptide 43]", "pKd": 3.76}
{"substance": "SYTDVQDS-NH2 [Peptide 49]", "pKd": 3.27}

---

system: TWEAK-Fn14 signalling pathway, BRV5 cells; experiment: Cell-based screening of individual peptides, gene expression microarray in TWEAK-stimulated BRV5 cells; design: species or system human; settings: individual peptides, BRV5 + TWEAK, 450 µM, 6 h; mean of replicate columns
MAP4K4 mRNA expression (normalized to NARS2) overview
recordedEndpoint: MAP4K4 mRNA expression (normalized to NARS2)

{"substance": "SGVSTAQLD [Peptide 4]", "valueMeasured": 0.2128}
{"substance": "11: SGVAYQETT [Peptide 11]", "valueMeasured": 0.1986}
{"substance": "42: YNGHVKDD [Peptide 42]", "valueMeasured": 0.2296}
{"substance": "SWYDHMAGDSSY [Peptide 35]", "valueMeasured": 0.1168}
{"substance": "13: YSGYFGGFY [Peptide 13]", "valueMeasured": 0.2531}
{"substance": "1: GNGTDDNSGTSY [Peptide 1]", "valueMeasured": 0.1707}
{"substance": "46: TGYAENV [Peptide 46]", "valueMeasured": 0.2105}
{"substance": "30: DNGGGNTDIYSE [Peptide 30]", "valueMeasured": 0.1227}
{"substance": "TKGGGTADA [Peptide 3]", "valueMeasured": 0.2389}
